The measured values listed here are drawn from PubChem BioAssay (NCI).

- Experimental protocol: NCI Yeast Anticancer Drug Screen. Data for the rad50 strain (AID 155);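 further: 0% = growth of vehicle-only cultures of the same strain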
- Condition summary: S. cerevisiae rad50 strain growth inhibition, hits give high values; at 50.0 µM unless noted
About 79,000 compounds went through this panel and 15% of them were active in at least one assay; those are over-represented in the sample as a whole.
Assign growth inhibition to each entry below.
Quick note: give the figure in %, leave out the unit.

Req: Need growth inhibition of C#CC(=O)CCC , thanks.
Resp: 26.6

Req: Give the measured growth inhibition of CCOC(=O)c1nc(N)nc(N)c1-c1ccc(Cl)cc1 .
Resp: 3.6

Req: Which growth inhibition is listed for N#CSc1ccc(NN)cc1 ?
Resp: 11.2

Req: I have this molecule here, CC(O)c1cccc(NC(=O)NC2CCCCC2)c1 (configuration not stated) , and I need its recorded growth inhibition.
Resp: -2.55

Req: I would be grateful if you could share the reported growth inhibition for COc1ccc(C)cc1NC(=O)OCCCl .
Resp: 3.1

Req: Given the entry C=C1C(=O)O[C@@H]2C[C@@]3(C)[C@H](O)CCC(=C)[C@@H]3C[C@H]12 , report its measured growth inhibition.
Resp: -4.65

Req: Which value of growth inhibition has been reported for NC(=O)C(=CN1C(=O)CC(=O)NC1=S)C(N)=O in the records?
Resp: -29.8

Req: What growth inhibition value was documented for this molecule, Cc1ncc(CO)c(CO)c1OCC(O)CN1CCN(c2ccc(F)cc2)CC1 (configuration not stated) ?
Resp: -15.8

Req: Need growth inhibition, item O=c1oc(-c2ccc([N+](=O)[O-])cc2)nc2cc(Cl)ccc12
Resp: 17.8

Req: Any idea what its growth inhibition is? The molecule is Cc1ccc(NCC2CC/C(=C\c3ccc(Cl)cc3)C2=O)cc1 (configuration not stated)
Resp: -43.8

Req: I'd like to know its growth inhibition. The molecule in question is O=C(/C=C/c1ccc(O)c(O)c1)OC1CC(O)(C(=O)O)CC(O)C1O (configuration not stated) (tested in a mixture with another compound)
Resp: -26.6

Req: Bench note: what growth inhibition did CN1c2ccccc2C2CCCCC21 (configuration not stated) show?
Resp: 11.6

====

- Experimental protocol: NCI Yeast Anticancer Drug Screen. Data for the sgs1 mgt1 strain (AID 161);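 further: 0% = growth of cultures given vehicle only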
- Condition summary: S. cerevisiae sgs1 mgt1 strain; at 50.0 µM unless noted
Compounds without any hit were thinned out: in the full panel of roughly 79,000, 15% have a hit. Active and inactive are the calls of the source. No stated cut-off is given here; in the data, active means growth inhibition above about 70%; inactive means the rest.
API: response.call in active, inactive

Req: Per the records of this test, what outcome belongs to CC(=O)OC(OC(C)=O)c1ccccc1 ?
Resp: inactive

Req: Per the assay record, what outcome was assigned to COc1cc(C(=O)N(C)C)cc(OC)c1OC ?
Resp: inactive

Req: Which outcome did this test record for the compound CC(=O)Oc1ccc2c(c1)[nH]c1c3ccc(OC(C)=O)cc3oc(=O)c21 ?
Resp: inactive

Req: For Nc1ncnc2c1ncn2C1OC(CO)C(NC(=O)C(N)Cc2ccccc2)C1O (stereo unspecified) , what call appears in the results of this test?
Resp: inactive

Req: // outcome(item) with item = CCC(O)(c1ccccc1)C(O)(CC)c1ccccc1 (stereo unspecified)
Resp: inactive

Req: Identify the outcome logged in this assay for the compound shown: NCC(=O)c1ccc(CCC(=O)O)cc1
Resp: inactive

Req: I would be grateful if you could indicate the recorded call for CCN(CC)CCn1c2ccccc2c(=O)c2c(OC)ccc(OC)c21 .
Resp: inactive

Req: Which outcome was entered for the compound CCC(C)C(NC(=O)C1CSC(C)(C)N1C=O)C(=O)OC1CCCCC1 (stereo unspecified) in this test?
Resp: inactive

Req: Field: outcome | Entry: CC(C)(C)OC(=O)NNS(=O)(=O)CCC(NC(=O)OCc1ccccc1)C(=O)OCc1ccccc1 (stereo unspecified)
Resp: inactive

Req: Record lookup: outcome of this test for C1CCCC(=NN=C2CCCCCCC2)CCC1 ?
Resp: inactive

Req: Record lookup: outcome of this test for CC(=O)O/N=C(\C(c1ccccc1)c1ccccc1)C1c2ccccc2-c2ccccc21 ?
Resp: active

Req: How was CC(C)=CCCC(C)CCOc1cccc(C)c1 (stereo unspecified) classified in this test?
Resp: inactive

Req: Query: recorded result category for CC(C)(C)OC(=O)c1ccccc1C(=O)c1ccccc1 in this test
Resp: inactive

Req: GET /call?item= CC(=O)Nc1ccc(C2NCc3cnc(C)nc3N2)cc1 (stereo unspecified) returns the recorded outcome of this test.
Resp: inactive

Req: Which outcome was assigned to S=c1nc[nH]c2[nH]cc(Br)c12 in this test?
Resp: inactive

Req: Check the results log: what was the call for O=[N+]([O-])c1ccc(N(CCO)CCO)cc1 ?
Resp: inactive

Req: Recorded test outcome, item CC(C)(C)NC(=O)C(Br)c1ccccc1 (stereo unspecified)
Resp: inactive

Req: // return assay outcome for CC(C)(O)C#CC(C)(C)O
Resp: inactive

Req: Assay result, entry Cn1c(-c2csc(-c3ccc(Cl)cc3)n2)n[nH]c1=S — outcome?
Resp: inactive

Req: Tell me the assay call for CCN(CC)CC(C)O (stereo unspecified) please.
Resp: inactive

Req: Identify the outcome logged in this assay for the compound shown: CCN(CCO)c1cccc(C)c1
Resp: inactive

Req: Returns: the outcome recorded for Cc1cc(=O)[nH]c(NNC(C#N)c2ccc(O)cc2)n1 (stereo unspecified) in this assay.
Resp: inactive

Req: // outcome(item) with item = Nn1c(N=Nc2c(O)[nH]c3ccccc23)n[nH]c1=S
Resp: inactive

Req: Hey, what did the test say about O=C(O)C(c1ccccc1)N1C(=O)C(Cl)=C(Cl)C1=O (stereo unspecified) ?
Resp: inactive

Req: Query: recorded result category for COc1ccc(-n2c(N)c(C#N)[nH]c2=O)cc1 in this test
Resp: inactive

Req: # lookup: test call for N#Cc1ccc(CC(=O)c2ccccc2)cc1
Resp: inactive

====

Give growth inhibition for every item shown.
- Experimental protocol: NCI Yeast Anticancer Drug Screen. Data for the bub3 strain (AID 167)
- Condition summary: S. cerevisiae bub3 mutant strain, hits give high values; at 50.0 µM unless noted
The panel holds about 79,000 compounds, 15% with a hit somewhere; the sample as a whole holds those more often.
Write the answer as a number in %, unit excluded.

Req: Give the measured growth inhibition of O=C(O)C1CCC(=O)N1Cc1c[nH]c2ccccc12 (stereo not given) .
Resp: 15.4

Req: Looking for the measured growth inhibition of O=c1[nH]cnc2nc(N3CCOCC3)sc12 , can you help?
Resp: -6.5

Req: # lookup: growth inhibition of CC(=O)c1c(Cl)nnc(-c2ccccc2)c1-c1ccccc1
Resp: -11.7

Req: Endpoint output: growth inhibition of CCC1([N+](=O)[O-])COC(CCc2ccccc2)OC1 (stereo not given) . Value?
Resp: -0.25

Req: Return reported growth inhibition; argument: CN(C)C(=NN=C(N(C)C)N(C)C)N(C)C
Resp: -5.85

Req: Tell me the measured growth inhibition of O=C1CN2CCC1C/C2=C\c1ccnc2c(Cl)cc(Cl)cc12 (stereo not given) , please.
Resp: -12

Req: Bench note: what growth inhibition did COc1cccc(N2C(=O)C3c4[nH]c5ccccc5c4C4c5ccccc5CCC4C3C2=O)c1 (stereo not given) show?
Resp: -0.6

Req: May I ask what growth inhibition has been recorded for CS(=O)(=O)OCCN(CCOS(C)(=O)=O)c1cc(C(N)=O)c([N+](=O)[O-])cc1[N+](=O)[O-] ?
Resp: -0.35

Req: Requested field: growth inhibition. Item: OC(CCN1CC2CCC(CC2)C1)(Cc1ccccc1)c1cccs1 (stereo not given)
Resp: 17.1

Req: Consider the molecule CC(=O)OC[C@@]12C[C@H]3C(=O)C(C)(C)C[C@H]3[C@]1(C)[C@@H](OC(C)=O)[C@]1(O)[C@H]([C@@H](OC(=O)c3ccccc3)[C@@H](C)[C@H]1OC(C)=O)[C@H]2OC(C)=O and give its measured growth inhibition.
Resp: 10.8

Req: growth inhibition lookup needed for CC(CCCCCOC(=O)Nc1ccccc1)OC(=O)Nc1ccccc1 (stereo not given) , thanks.
Resp: 1.15

Req: Name the reported growth inhibition value associated with the molecule NC(=S)/N=C(/c1nc2ccc(Cl)cc2[nH]c1=O)C(O)c1ccccc1Cl (stereo not given)
Resp: 22.5

Req: Given the entry O=C1OC(/C=C/c2ccccc2)=NC/1=C\c1ccc2c(c1)OCO2 , report its measured growth inhibition.
Resp: -1.85

Req: # get_value(readout='growth inhibition', item= COC(=O)C1=CO[C@@H](OC2OC(CO)C(O)C(O)C2O)[C@H]2[C@@H]1C=C[C@@]21C=C([C@H](C)OC(=O)/C=C/c2ccc(OC3OC(CO)C(O)C(O)C3O)cc2)C(=O)O1 (stereo not given in full) )
Resp: 2.65

Req: Given O=C(O)c1cc(Cl)cc(C(=O)O)n1 , state its recorded growth inhibition.
Resp: 4.65

Req: // lookup growth inhibition for O=C(Nc1ccc(Cl)cc1[N+](=O)[O-])Oc1ccc(C2CCCCC2)cc1
Resp: 98

Req: # growth inhibition lookup, item C=CCC1(CN(C)C)CC/C(=C\c2ccc(Cl)cc2)C1=O (stereo not given)
Resp: 16.3

Req: Tell me the measured growth inhibition of COc1ccc(C2(OC)Oc3cc(OC)ccc3-c3nc4ccccc4nc32)cc1 (stereo not given) , please.
Resp: 4.3

Req: Using the record for COc1cccc(C2c3cc4c(cc3OC(C)(O)C2C)OCO4)c1O (stereo not given) , report its growth inhibition.
Resp: 1.65

Req: // lookup growth inhibition for CCOC(=O)C(=O)/C(=C/N1C(=O)CC(=O)NC1=S)C(=O)OCC
Resp: -34.9
